- measured-on: UniProtKB P46091
- Sequence (P46091 whole entry): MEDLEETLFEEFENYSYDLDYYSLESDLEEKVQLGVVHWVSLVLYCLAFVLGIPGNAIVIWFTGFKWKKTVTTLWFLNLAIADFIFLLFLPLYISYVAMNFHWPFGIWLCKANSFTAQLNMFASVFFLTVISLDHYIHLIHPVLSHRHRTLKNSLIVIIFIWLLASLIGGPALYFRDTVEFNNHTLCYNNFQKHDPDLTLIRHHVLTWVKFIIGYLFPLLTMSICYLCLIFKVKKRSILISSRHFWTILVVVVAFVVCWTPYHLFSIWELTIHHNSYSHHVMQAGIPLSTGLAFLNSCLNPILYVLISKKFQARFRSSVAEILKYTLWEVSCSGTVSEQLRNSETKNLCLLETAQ
- method-description: cell-based
- condition-details: read-out: Nluc-GPR1 Ki
reported-metric: pKi
Give bare numbers, as −log10 of the molar value.

Task: Requested field: pKi. Item: COc1ccc(C)cc1NC(=O)CSc1nc(=O)c(S(=O)(=O)c2ccc(C)c(Cl)c2)c[nH]1
Output: 5.88
